Origin of values: patent US5891871A

- System: AMPA receptor
- ASSAY_SUMMARY: AMPA receptor antagonism / positive modulation: AMPA induced current in Xenopus oocytes expressing rat whole brain poly(A)+ RNA (electrophysiology)
- Assay type: cell-based
- ASSAY_CONDITIONS: concentration at which AMPA current is potentiated 200%
MEASUREMENT_LABEL: AMPA positive potentiation, 200% @ μM

- COMPOUND: "CCCC(CC)N1N=C(c2ccccc2)c2cc3c(cc2CC1=O)OCO3 (stereo not shown)"
  RESULT: "24 µM"
- COMPOUND: "O=C1Cc2cc3c(cc2C(c2ccccc2)=NN1C1CCCCCC1)OCO3"
  RESULT: "10 µM"
- COMPOUND: "CCC(C)N1N=C(c2ccccc2)c2cc3c(cc2CC1=O)OCO3 (stereo not shown)"
  RESULT: "12 µM"
- COMPOUND: "CC(C)N1N=C(c2ccccc2)c2cc3c(cc2CC1=O)OCO3"
  RESULT: "30 µM"
- COMPOUND: "CCC(CC)N1N=C(c2ccccc2)c2cc3c(cc2CC1=O)OCO3"
  RESULT: "11 µM"
- COMPOUND: "CCCC(C)N1N=C(c2ccccc2)c2cc3c(cc2CC1=O)OCO3 (stereo not shown)"
  RESULT: "160 µM"
- COMPOUND: "O=C1Cc2cc3c(cc2C(c2ccccc2)=NN1C1CCCCC1)OCO3"
  RESULT: "11 µM"
